EXPERIMENTAL_TARGET: IKZF1 (Homo sapiens (Human), UniProt Q13422+Q96SW2)
Sequence (Q13422 whole entry): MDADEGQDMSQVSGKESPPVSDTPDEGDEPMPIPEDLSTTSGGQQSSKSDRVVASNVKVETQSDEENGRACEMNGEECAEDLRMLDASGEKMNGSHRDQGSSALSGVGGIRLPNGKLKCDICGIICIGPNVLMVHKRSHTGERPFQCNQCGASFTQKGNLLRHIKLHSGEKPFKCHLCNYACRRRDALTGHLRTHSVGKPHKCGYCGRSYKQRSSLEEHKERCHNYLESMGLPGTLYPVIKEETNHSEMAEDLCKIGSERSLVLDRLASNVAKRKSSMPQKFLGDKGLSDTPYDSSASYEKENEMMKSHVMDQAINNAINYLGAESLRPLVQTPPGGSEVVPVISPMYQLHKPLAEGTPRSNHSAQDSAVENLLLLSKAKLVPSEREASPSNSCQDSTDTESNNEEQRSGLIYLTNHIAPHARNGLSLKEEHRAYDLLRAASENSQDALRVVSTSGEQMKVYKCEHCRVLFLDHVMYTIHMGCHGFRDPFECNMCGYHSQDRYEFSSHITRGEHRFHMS
Sequence (Q96SW2 whole entry): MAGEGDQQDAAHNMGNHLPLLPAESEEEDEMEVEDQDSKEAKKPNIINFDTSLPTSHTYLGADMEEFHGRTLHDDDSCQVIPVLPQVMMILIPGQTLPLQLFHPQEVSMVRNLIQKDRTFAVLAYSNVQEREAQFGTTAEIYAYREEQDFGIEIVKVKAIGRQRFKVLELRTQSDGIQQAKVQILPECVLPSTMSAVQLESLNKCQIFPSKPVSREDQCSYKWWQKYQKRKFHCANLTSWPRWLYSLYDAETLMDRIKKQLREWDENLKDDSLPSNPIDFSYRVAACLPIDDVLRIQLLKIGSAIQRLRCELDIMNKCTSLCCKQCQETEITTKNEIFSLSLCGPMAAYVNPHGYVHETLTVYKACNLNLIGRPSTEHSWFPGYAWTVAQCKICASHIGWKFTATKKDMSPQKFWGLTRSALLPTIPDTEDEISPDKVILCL
Sequence (Q16531 whole entry partner): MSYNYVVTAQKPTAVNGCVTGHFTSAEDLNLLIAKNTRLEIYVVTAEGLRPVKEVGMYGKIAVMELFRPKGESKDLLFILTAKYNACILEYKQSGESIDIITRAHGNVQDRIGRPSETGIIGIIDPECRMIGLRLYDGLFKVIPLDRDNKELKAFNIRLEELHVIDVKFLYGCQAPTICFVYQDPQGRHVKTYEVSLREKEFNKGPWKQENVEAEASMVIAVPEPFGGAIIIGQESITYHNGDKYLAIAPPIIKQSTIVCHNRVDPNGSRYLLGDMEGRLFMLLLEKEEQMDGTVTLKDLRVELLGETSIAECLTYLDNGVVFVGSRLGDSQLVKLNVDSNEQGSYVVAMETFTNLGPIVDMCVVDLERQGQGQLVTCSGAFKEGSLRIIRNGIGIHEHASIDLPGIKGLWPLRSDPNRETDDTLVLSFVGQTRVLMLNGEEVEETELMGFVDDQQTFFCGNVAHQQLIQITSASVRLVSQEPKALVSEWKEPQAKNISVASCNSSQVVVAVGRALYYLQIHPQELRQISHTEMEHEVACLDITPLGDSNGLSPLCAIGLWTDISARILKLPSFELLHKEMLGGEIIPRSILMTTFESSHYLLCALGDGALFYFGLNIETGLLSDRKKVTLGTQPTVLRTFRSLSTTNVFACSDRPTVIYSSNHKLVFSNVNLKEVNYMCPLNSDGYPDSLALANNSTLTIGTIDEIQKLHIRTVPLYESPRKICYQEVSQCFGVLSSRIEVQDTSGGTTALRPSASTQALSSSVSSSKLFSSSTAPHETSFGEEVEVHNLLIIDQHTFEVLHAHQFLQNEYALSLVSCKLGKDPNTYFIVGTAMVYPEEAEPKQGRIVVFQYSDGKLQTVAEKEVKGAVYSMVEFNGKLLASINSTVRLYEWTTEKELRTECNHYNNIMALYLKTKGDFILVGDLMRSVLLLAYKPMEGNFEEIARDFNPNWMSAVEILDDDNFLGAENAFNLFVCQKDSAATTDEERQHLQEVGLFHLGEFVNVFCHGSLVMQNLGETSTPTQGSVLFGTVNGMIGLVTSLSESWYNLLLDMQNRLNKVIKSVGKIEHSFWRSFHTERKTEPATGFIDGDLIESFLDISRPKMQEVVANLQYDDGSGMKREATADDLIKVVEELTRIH
EXPERIMENT: IKZF1 HiBit Assay (HEK293T Flp-in-HiBiT-IKZF1 stable cell line)
Type: cell-based
COND: HEK-293T; HEK293T Flp-in-HiBiT-IKZF1 cells, 6 hrs; read-out: IKZF1 HiBit degradation Dmax
Catalogue of compounds with associated Dmax

COMPOUND | Dmax
Cn1cc(-c2cccc(CN3CCC4(CC3)COc3c5c(cc(F)c34)C(=O)N([C@H]3CCC(=O)NC3=O)C5)c2)cn1 | < 20%
O=C1CC[C@H](N2Cc3c(ccc4c3OC[C@]43CCN(Cc4cccc(-c5cnn(C6COC6)c5)c4)CC3(F)F)C2=O)C(=O)N1 | < 20%
O=C1CCC(N2Cc3c(ccc4c3OCC43CCN(Cc4cccc5cn[nH]c45)CC3O)C2=O)C(=O)N1 (stereo not shown) | < 20%

## Task Query the reported Dmax for IKZF1 (Homo sapiens (Human), UniProt Q13422+Q96SW2); item: `O=C1CC[C@H](N2Cc3c(ccc4c3OCC43CCN(Cc4cnn(-c5ccc(Cl)cc5)c4C(F)(F)F)CC3)C2=O)C(=O)N1`
## Result 20 to 40%

---

Each entry below carries its reported IC50.
EXPERIMENTAL_TARGET: His tagged CRBN+DDB−DLS7+CXU4 (Homo sapiens (Human), UniProt Q96SW2)
Sequence (Q96SW2 whole entry): as the sequence (Q96SW2 whole entry) above
Sequence (Q16531 whole entry partner): as the sequence (Q16531 whole entry partner) above
EXPERIMENT: IC50 Measurements for Binding to CRBN/DDBI (HTRF)
COND: Cy5-labeled Thalidomide probe, one hour incubation

// worked examples, IC50 included
MOLECULE | IC50
[2H]C([2H])(c1ccc2cn(C)nc2c1)N1CCC2(CC1)COc1c2ccc2c1CN([C@H]1CCC(=O)NC1=O)C2=O | 100 to 500 nM
O=C1CCC(N2Cc3c(ccc4c3OCC43CCN(Cc4ccccc4)CC3O)C2=O)C(=O)N1 (centres unmarked) | 100 to 500 nM
Cn1ncc2cc(CN3CCC4(COc5c4ccc4c5CN([C@H]5CCC(=O)NC5=O)C4=O)C(F)(F)C3)ccc21 (some centres unmarked) | 100 to 500 nM
Cn1cc2c(CN3CCC4(COc5c4ccc4c5CN([C@H]5CCC(=O)NC5=O)C4=O)C(F)(F)C3)cccc2n1 (some centres unmarked) | 100 to 500 nM
CC1CN(Cc2cccc(-c3cnn(C)c3)c2)CCC12COc1c2ccc2c1CN(C1CCC(=O)NC1=O)C2=O (centres unmarked) | 100 to 500 nM

## Task Given O=C1CC[C@H](N2Cc3c(ccc4c3OCC43CCN(Cc4cnn(S(=O)(=O)c5ccccc5Cl)c4)CC3(F)F)C2=O)C(=O)N1 (some centres unmarked) , state its recorded IC50.
## Result < 100 nM

## Task Which value of IC50 has been reported for O=C1CC[C@H](N2Cc3c(ccc4c3OCC43CCN(Cc4ccc5c(c4)CC(=O)N5)CC3(F)F)C2=O)C(=O)N1 (some centres unmarked) in the records?
## Result 100 to 500 nM

## Task Using the record for O=C1CC[C@H](N2Cc3c(ccc4c3OCC43CCN(Cc4cccc(-c5cnn(C6COC6)c5)c4)CC3(F)F)C2=O)C(=O)N1 (some centres unmarked) , report its IC50.
## Result 100 to 500 nM

---

EXPERIMENTAL_TARGET: IKZF2 (Homo sapiens (Human), UniProt Q96SW2+Q9UKS7)
Sequence (Q9UKS7 whole entry): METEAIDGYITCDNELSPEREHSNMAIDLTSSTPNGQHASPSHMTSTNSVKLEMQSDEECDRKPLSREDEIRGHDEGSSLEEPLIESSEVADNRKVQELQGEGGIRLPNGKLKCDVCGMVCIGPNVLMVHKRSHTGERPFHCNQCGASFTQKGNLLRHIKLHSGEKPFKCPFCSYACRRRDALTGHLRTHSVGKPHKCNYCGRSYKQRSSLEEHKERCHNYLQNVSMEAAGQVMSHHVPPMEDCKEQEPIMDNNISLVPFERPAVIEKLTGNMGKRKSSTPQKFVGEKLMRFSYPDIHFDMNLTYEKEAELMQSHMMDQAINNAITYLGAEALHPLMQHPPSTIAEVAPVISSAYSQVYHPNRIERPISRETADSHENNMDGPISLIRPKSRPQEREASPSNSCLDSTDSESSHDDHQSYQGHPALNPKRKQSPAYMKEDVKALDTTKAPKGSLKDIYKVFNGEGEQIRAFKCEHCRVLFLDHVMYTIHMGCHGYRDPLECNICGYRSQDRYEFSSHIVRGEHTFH
Sequence (Q96SW2 whole entry): as the sequence (Q96SW2 whole entry) above
Sequence (Q16531 whole entry partner): as the sequence (Q16531 whole entry partner) above
EXPERIMENT: IKZF2 HiBiT Assay (Jurkat-IKZF2-HiBiT cell line)
Format: cell-based
COND: Jurkat-IKZF2-HiBiT cells, 24 hours; read-out: HiBit assay degradation analysis DC50
PROPERTY_MEASURED: DC50

MOLECULE | EXPERIMENTAL_TARGET | DC50
O=C1CCC(N2Cc3c(ccc4c3OCC43CCN(Cc4cnn(-c5ccccc5F)c4)CC3)C2=O)C(=O)N1 (stereo not shown) | IKZF2 (Homo sapiens (Human), UniProt Q96SW2+Q9UKS7) | > 500 nM
O=C1CCC(N2Cc3c(ccc4c3OCC43CCN(Cc4ccnc5ccccc45)CC3)C2=O)C(=O)N1 (stereo not shown) | IKZF2 (Homo sapiens (Human), UniProt Q96SW2+Q9UKS7) | > 500 nM
Cn1cc(-c2cccc(CN3CCC4(CC3)COc3c4ccc4c3CN([C@H]3CCC(=O)NC3=O)C4=O)c2)cn1 | IKZF2 (Homo sapiens (Human), UniProt Q96SW2+Q9UKS7) | < 50 nM

// next item, DC50 requested
## Task Return reported DC50; argument: O=C1CCC(N2Cc3c(ccc4c3OCC43CCN(Cc4ccc(S(=O)(=O)c5ccccc5)cc4)CC3)C2=O)C(=O)N1 (stereo not shown)
## Result > 500 nM

---

EXPERIMENTAL_TARGET: IKZF2 (Homo sapiens (Human), UniProt Q96SW2+Q9UKS7)
EXPERIMENT: IKZF2 HiBiT Assay (Jurkat-IKZF2-HiBiT cell line)
Type: cell-based
COND: Jurkat-IKZF2-HiBiT cells, 24 hours; read-out: HiBit assay degradation analysis DC50
DC50: recorded values

Solved cases below.
COMPOUND | PROPERTY_MEASURED | ENDPOINT_RESULT
O=C1CCC(N2Cc3c(ccc4c3OCC43CCN(Cc4ccn(-c5ccccc5)n4)CC3)C2=O)C(=O)N1 (stereo not shown) [Compound A251] | DC50 | > 500 nM
N#Cc1cccc(CN2CCC3(CC2)COc2c3ccc3c2CN(C2CCC(=O)NC2=O)C3=O)c1 (stereo not shown) [Compound A219] | DC50 | 200 to 500 nM
O=C1CCC(N2Cc3c(ccc4c3OCC43CCN(Cc4cccc5[nH]ccc45)CC3)C2=O)C(=O)N1 (stereo not shown) [Compound A87] | DC50 | < 50 nM
CC(C)c1ccc(CN2CCC3(CC2)COc2c3ccc3c2CN(C2CCC(=O)NC2=O)C3=O)cc1 (stereo not shown) [Compound A191] | DC50 | > 500 nM
O=C1CCC(N2Cc3c(ccc4c3OCC43CCN(Cc4cccc(Oc5ccccc5)c4)CC3)C2=O)C(=O)N1 (stereo not shown) [Compound A86] | DC50 | > 500 nM

## Task Notebook: pull reported DC50 for IKZF2 (Homo sapiens (Human), UniProt Q96SW2+Q9UKS7), entry O=C1CCC(N2Cc3c(ccc4c3OCC43CCN(Cc4cccc(-c5ccccn5)c4)CC3)C2=O)C(=O)N1 (stereo not shown) [Compound A103]
## Result 200 to 500 nM

## Task For the record COCCn1cc(-c2cccc(CN3CCC4(CC3)COc3c4ccc4c3CN([C@H]3CCC(=O)NC3=O)C4=O)c2)cn1 [Compound A286] , what value of DC50 is listed for IKZF2 (Homo sapiens (Human), UniProt Q96SW2+Q9UKS7)?
## Result 50 to 200 nM

---

compounds and their reported DC50
EXPERIMENTAL_TARGET: IKZF2 (Homo sapiens (Human), UniProt Q96SW2+Q9UKS7)
EXPERIMENT: IKZF2 HiBit Assay (HEK293T Flp-in-HiBiT cells)
Assay type: cell-based
COND: HEK293T Flp-in-HiBiT cells, 6 hrs; read-out: IKZF2 HiBit degradation DC50

COMPOUND | EXPERIMENTAL_TARGET | DC50
Cn1cc2c(CN3CCC4(COc5c4ccc4c5CN([C@H]5CCC(=O)NC5=O)C4=O)C(F)(F)C3)cccc2n1 (some centres unmarked) | IKZF2 (Homo sapiens (Human), UniProt Q96SW2+Q9UKS7) | 1 to 10 nM
O=C1CC[C@H](N2Cc3c(ccc4c3OC[C@]43CCN(Cc4cccc(-c5cnn(C6COC6)c5)c4)CC3(F)F)C2=O)C(=O)N1 | IKZF2 (Homo sapiens (Human), UniProt Q96SW2+Q9UKS7) | < 1 nM
O=C1CCC(N2Cc3c(ccc4c3OCC43CCN(Cc4ccccc4)CC3(F)F)C2=O)C(=O)N1 (centres unmarked) | IKZF2 (Homo sapiens (Human), UniProt Q96SW2+Q9UKS7) | 1 to 10 nM

## Task Requested read-out: DC50. Entry: O=C1CC[C@H](N2Cc3c(ccc4c3OCC43CCN(Cc4cccc(-c5cnn(C6COC6)c5)c4)CC3(F)F)C2=O)C(=O)N1 (some centres unmarked)
## Result < 1 nM

## Task Requested field: DC50. Item: O=C1CCC(N2Cc3c(ccc4c3OCC43CCN(Cc4cccc5cn[nH]c45)CC3O)C2=O)C(=O)N1 (centres unmarked)
## Result 10 to 100 nM

## Task Returns the measured DC50 for the input compound. Input: Cn1cc2ccc(CN3CCC4(COc5c4ccc4c5CN([C@H]5CCC(=O)NC5=O)C4=O)C(F)(F)C3)cc2n1 (some centres unmarked)
## Result 1 to 10 nM

## Task State the recorded DC50 for this entry: Cn1ncc2cc(CN3CCC4(COc5c4ccc4c5CN([C@H]5CCC(=O)NC5=O)C4=O)C(F)(F)C3)ccc21 (some centres unmarked)
## Result 1 to 10 nM

## Task Which DC50 is listed for `O=C1CC[C@@H](N2Cc3c(ccc4c3OCC43CCN(Cc4cccc(-c5cnn(C6COC6)c5)c4)CC3)C2=O)C(=O)N1` ?
## Result 1 to 10 nM

## Task Consider the compound `Cn1cc(-c2cccc(CN3CCC4(CC3)COc3c4ccc4c3CN([C@@H]3CCC(=O)NC3=O)C4=O)c2)cn1` and give its measured DC50.
## Result 1 to 10 nM

## Task Find the recorded DC50 belonging to `Cn1cc(-c2cccc(CN3CC[C@@]4(COc5c4ccc4c5CN([C@H]5CCC(=O)NC5=O)C4=O)C(F)(F)C3)c2)cn1` and report it.
## Result 1 to 10 nM

## Task Which measured DC50 value corresponds to `[2H]C([2H])(c1ccc2cnn(C)c2c1)N1CCC2(CC1)COc1c2ccc2c1CN([C@H]1CCC(=O)NC1=O)C2=O` ?
## Result 1 to 10 nM

## Task // lookup DC50 for O=C1CCC(N2Cc3c(ccc4c3OCC43CCN(Cc4ccccc4)CC3F)C2=O)C(=O)N1 (centres unmarked)
## Result > 1000 nM

## Task Given the compound `Cn1cc(-c2cccc(CN3CC[C@]4(COc5c4ccc4c5CN([C@H]5CCC(=O)NC5=O)C4=O)C(F)(F)C3)c2)cn1` , what is its reported DC50?
## Result < 1 nM

## Task Bench note: what DC50 did O=C1CC[C@H](N2Cc3c(ccc4c3OCC43CCN(Cc4ccc5[nH]ncc5c4)CC3(F)F)C2=O)C(=O)N1 (some centres unmarked) show?
## Result 1 to 10 nM

Values compiled from patent US20250215012A1.
